target_under_test: MS2 coat protein, dlFG mutant (Escherichia phage MS2, UniProt P03612, del68-81insG)
experiment_notes: 4 mM Mg2+; L-tryptophan 2.4 mM; RNA-MaP array; 100 mM Tris-HCl pH 7.5, 80 mM KCl, 4 mM MgCl2, 0.1 mg/mL BSA, 1 mM DTT, 0.01 mg/mL yeast tRNA, 0.01% Tween-20; protein 1.5 nM to 3 uM; 37 C (Table S3)
test_parameters: chain copies: 2; label: tethered by stalled RNA polymerase
quantity_measured: Kd (nM)
One number for each entry, in nM.

Eterna 7727518 (Exclusion - Tryptophan B) (ssRNA) RNA: GUUUUGGGAUCGGCCGCCACUACAUGAGGAUCACCCAUGUGGACAAAUAGGGUUUUUAAGCUCGGUAGGACCGGGAUUCGAACAU : 67.5

Moving on to the next binder.
For the binder Eterna 7614506 (Exclusion - Tryptophan A) (ssRNA) RNA: UAUAUAUAUCACGAACUGUGGUGUAUGUCUCGAGGACCGGUACGGCCGCCACUCGCGCGGCCUCACAUGAGGAUCACCCAUGUUG , report Kd.
46

Cited source: paper PMC9170038
